TARGET ENTITY: Oplophorus-luciferin 2-monooxygenase catalytic subunit (Oplophorus gracilirostris)
Sequence (Q9GV45 whole entry): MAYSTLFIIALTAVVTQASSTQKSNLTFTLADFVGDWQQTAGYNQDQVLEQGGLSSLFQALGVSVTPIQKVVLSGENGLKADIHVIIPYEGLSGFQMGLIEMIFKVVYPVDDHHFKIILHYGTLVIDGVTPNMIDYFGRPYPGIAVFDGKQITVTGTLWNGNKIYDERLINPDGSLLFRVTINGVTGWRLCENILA
PROCEDURE TEXT: NanoLuc Inhibition Assay
pIC50: −log10 of the molar value.
REPORTED METRIC: pIC50

- COMPOUND: "CCN(C(=O)Cn1c(C(=O)NC2CCC(C(=O)NCCCCCCS(=O)(=O)O)CC2)cc2sccc21)c1cccc(C)c1 (trans isomer)"
  pIC50: 7.15
- COMPOUND: "CCOC(=O)Cc1ccc(NC(=O)c2cc3sccc3n2CC(=O)N(CC)c2cccc(C)c2)cc1"
  pIC50: 5.33
- COMPOUND: "CCN(C(=O)Cn1c(C(=O)Nc2cccc(C(=O)OC)c2)cc2sccc21)c1cccc(C)c1"
  pIC50: 4.97
- COMPOUND: "CCN(C(=O)Cn1c(C(=O)N[C@H]2CC[C@H](C(=O)OC)CC2)cc2sccc21)c1ccccc1C"
  pIC50: 6.16
- COMPOUND: "CCN(C(=O)Cn1c(C(=O)N[C@H]2CC[C@H](C(=O)OC)CC2)cc2ccc(OC)cc21)c1cccc(C)c1"
  pIC50: 5.47
- COMPOUND: "CCN(C(=O)Cn1c(C(=O)N[C@H]2CC[C@H](C(=O)OC)CC2)cc2sccc21)c1cccc(C(C)C)c1 (mixture of isomers)"
  pIC50: 6.89

P: CCN(C(=O)Cn1c(C(=O)N[C@H]2CC[C@H](C(=O)OC)CC2)cc2occc21)c1cccc(C)c1
Q: CCCCCCNC(=O)C1CCC(NC(=O)c2cc3sccc3n2CC(=O)N(CC)c2cccc(C)c2)CC1 (trans isomer)
Could you kindly indicate whether P or Q has the higher pIC50 value? In your reply, give the label of the chosen option.
Q

* * *

TARGET ENTITY: Oplophorus-luciferin 2-monooxygenase catalytic subunit (Oplophorus gracilirostris)
PROCEDURE TEXT: NanoLuc Inhibition Assay
Procedure: NanoLuc enzyme was diluted to 0.4 ng/mL in CO2 independent media + 10% FBS to make the detection reagent. A 3× dilution series of each inhibitor was then made in the detection reagent. A "no inhibitor" control was also made for each sample. A total of 50 μL of each inhibitor dilution was mixed with 50 μL of NanoGlo buffer containing 20 μM furimazine (final furimazine concentration is 10 μM, which is atKM), and luminescence was measured. Each sample was normalized to the "no inhibitor" control.
REPORTED METRIC: IC50 (nM)

- COMPOUND: "CCN(C(=O)Cn1c(C(=O)NC2CCC(C(=O)NCCCCCCCC(=O)O)CC2)cc2sccc21)c1cccc(C)c1 (centres undefined)"
  MEASUREMENT: 31

1: Cc1cccc(NC(=O)Cn2c(C(=O)NC3CCCCC3)cc3sccc32)c1
2: CCN(C(=O)Cn1c(C(=O)NC2CCC(C(=O)NCCCCCC(=O)O)CC2)cc2sccc21)c1cccc(C)c1 (centres undefined)
Lowest IC50? choose 1 or 2 In your reply, give the label of the chosen option.
2
(2: 94 nM, 1: 45200 nM)

* * *

TARGET ENTITY: Oplophorus-luciferin 2-monooxygenase catalytic subunit (Oplophorus gracilirostris)
PROCEDURE TEXT: NanoLuc Inhibition Assay
REPORTED METRIC: IC50 (nM)

Take a look at these entries with their results.
- COMPOUND: "CCN(C(=O)Cn1c(C(=O)N[C@H]2CC[C@H](C(=O)OC)CC2)cc2sccc21)c1cccc(C(N)=O)c1"
  IC50 / nM: 240
- COMPOUND: "CCN(C(=O)Cn1c(C(=O)NC2CCC(C(=O)NCCO)CC2)cc2sccc21)c1cccc(C)c1 (stereo unspecified)"
  IC50 / nM: 830
- COMPOUND: "COC(=O)[C@H]1CC[C@H](NC(=O)c2cc3sccc3n2CC(=O)N2CCCc3cc(C)ccc32)CC1"
  IC50 / nM: 20200
- COMPOUND: "CCN(C(=O)Cn1c(C(=O)N[C@H]2CC[C@H](C(=O)NCCCCCCNC(=O)[C@H](CC(=O)O)NC(=O)[C@H](CC(=O)O)NC(=O)[C@H](CC(=O)O)NC(C)=O)CC2)cc2sccc21)c1cccc(C)c1"
  IC50 / nM: 66
- COMPOUND: "COCCOCCN(C(=O)Cn1c(C(=O)NC2CCCCC2)cc2sccc21)c1cccc(C)c1"
  IC50 / nM: 16500

1: CCN(C(=O)Cn1c(C(=O)NC2CCC(C(=O)NCCN(C)C)CC2)cc2sccc21)c1cccc(C)c1 (trans isomer)
2: CCN(C(=O)Cn1c(C(=O)N2CCCCC2)cc2sccc21)c1cccc(C)c1
3: CCN(C(=O)Cn1c(C(=O)NC2CCC(C(=O)NCCCC(=O)O)CC2)cc2sccc21)c1cccc(C)c1 (trans isomer)
4: CCCCCCN(C(=O)Cn1c(C(=O)NC2CCCCC2)cc2sccc21)c1cccc(C)c1
5: CCN(C(=O)Cn1c(C(=O)N[C@H]2CC[C@@H](C(=O)OC)CC2)cc2sccc21)c1cccc(C)c1
Could you please sort these 5 entries by IC50 from high to low? Arrange the labels as the request states and list them.
1, 4, 2, 3, 5

src = BindingDB's records for doi:10.1021/acschembio.6b01129
